Measured values drawn from ChEMBL document CHEMBL4184125 for this set.

Tested On: NAD-dependent protein deacetylase sirtuin-1 (Homo sapiens) (UniProt Q96EB6)
Sequence (Q96EB6 whole entry): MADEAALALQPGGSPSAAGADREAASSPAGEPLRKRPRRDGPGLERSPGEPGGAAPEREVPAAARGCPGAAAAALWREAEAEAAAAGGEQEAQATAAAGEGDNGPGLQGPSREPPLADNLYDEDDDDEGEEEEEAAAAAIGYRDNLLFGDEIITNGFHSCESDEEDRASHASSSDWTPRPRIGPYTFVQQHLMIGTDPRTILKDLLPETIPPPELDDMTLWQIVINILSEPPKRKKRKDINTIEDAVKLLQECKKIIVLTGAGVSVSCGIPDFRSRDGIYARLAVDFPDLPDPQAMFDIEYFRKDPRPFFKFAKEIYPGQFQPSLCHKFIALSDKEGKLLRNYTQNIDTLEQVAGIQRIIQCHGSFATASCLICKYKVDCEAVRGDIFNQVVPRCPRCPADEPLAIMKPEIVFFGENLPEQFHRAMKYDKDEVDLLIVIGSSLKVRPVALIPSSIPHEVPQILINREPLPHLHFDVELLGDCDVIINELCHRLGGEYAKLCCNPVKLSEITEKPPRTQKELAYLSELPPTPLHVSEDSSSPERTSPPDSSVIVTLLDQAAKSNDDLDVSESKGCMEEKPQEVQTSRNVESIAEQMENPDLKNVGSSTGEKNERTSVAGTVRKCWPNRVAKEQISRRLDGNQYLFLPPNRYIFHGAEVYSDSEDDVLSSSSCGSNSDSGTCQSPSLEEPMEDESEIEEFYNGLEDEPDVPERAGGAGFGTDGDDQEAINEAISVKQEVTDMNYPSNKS
Assay Name: Inhibition of SIRT1 (unknown origin) assessed as reduction in Fluor de Lys deacetylation at 10 to 20 uM incubated for 5 mins followed by substrate addition measured after 45 mins in presence of NAD/NADH by fluorescence assay
Active and inactive are the calls of the source. No cut-off for these calls is given here.
Quantity Kind: inhibition

INSERT INTO measurements (compound_structure, result) VALUES
  ('CC(C)=CCC[C@@](C)(O)[C@H]1CC[C@]2(C)[C@@H]1[C@H](O)C[C@@H]1[C@@]3(C)CC[C@H](O[C@@H]4O[C@H](CO)[C@@H](O)[C@H](O)[C@H]4O)C(C)(C)[C@@H]3CC[C@]12C', 'inactive'),
  ('CC(C)=CCC[C@](C)(O)[C@H]1CC[C@]2(C)[C@@H]1[C@H](O)C[C@@H]1[C@@]3(C)CC[C@H](O)C(C)(C)[C@@H]3[C@@H](O[C@@H]3O[C@H](CO)[C@@H](O)[C@H](O)[C@H]3O[C@@H]3O[C@@H](C)[C@H](O)[C@@H](O)[C@H]3O)C[C@]12C', 'inactive'),
  ('C=C(CCC=C(C)C)[C@H]1CC[C@]2(C)[C@@H]1[C@H](O)C[C@@H]1[C@@]3(C)CC[C@H](O)C(C)(C)[C@@H]3[C@@H](O[C@@H]3O[C@H](CO)[C@@H](O)[C@H](O)[C@H]3O[C@@H]3O[C@@H](C)[C@H](O)[C@@H](O)[C@H]3O)C[C@]12C', 'inactive'),
  ('CC(C)=CCC[C@](C)(O)[C@H]1CC[C@]2(C)[C@@H]1[C@H](O)C[C@@H]1[C@@]3(C)CC[C@H](O[C@@H]4O[C@H](CO)[C@@H](O)[C@H](O)[C@H]4O)C(C)(C)[C@@H]3CC[C@]12C', 'inactive'),
  ('CC(C)=CCC[C@@](C)(O)[C@H]1CC[C@]2(C)[C@@H]1[C@H](O)C[C@@H]1[C@@]3(C)CC[C@H](O[C@@H]4O[C@H](CO)[C@@H](O)[C@H](O)[C@H]4O[C@@H]4O[C@H](CO)[C@@H](O)[C@H](O)[C@H]4O)C(C)(C)[C@@H]3CC[C@]12C', 'inactive'),
  ('Oc1ccc(/C=C/c2cc(O)cc(O)c2)cc1', 'inactive'),
  ('CC(C)=CCC[C@](C)(O)[C@H]1CC[C@]2(C)[C@@H]1[C@H](O)C[C@@H]1[C@@]3(C)CC[C@H](O[C@@H]4O[C@H](CO)[C@@H](O)[C@H](O)[C@H]4O)C(C)(C)[C@@H]3[C@@H](O)C[C@]12C', 'inactive'),
  ('CCOC(C)(C)CC/C=C(\C)[C@H]1CC[C@]2(C)[C@@H]1[C@H](O)C[C@@H]1[C@@]3(C)CC[C@H](O)C(C)(C)[C@@H]3[C@@H](O)C[C@]12C', 'inactive'),
  ('CC(C)=CC/C=C(\C)[C@H]1CC[C@]2(C)[C@@H]1[C@H](O)C[C@@H]1[C@@]3(C)CC[C@H](O[C@@H]4O[C@H](CO)[C@@H](O)[C@H](O)[C@H]4O[C@@H]4O[C@H](CO)[C@@H](O)[C@H](O)[C@H]4O)C(C)(C)[C@@H]3CC[C@]12C', 'inactive');

----------
Tested On: NAD-dependent protein deacetylase sirtuin-1 (Homo sapiens) (UniProt Q96EB6)
Assay Name: Activation of SIRT1 (unknown origin) assessed as Fluor de Lys deacetylation at 10 to 20 uM incubated for 5 mins followed by substrate addition measured after 45 mins in presence of NAD/NADH by fluorescence assay
Activity calls are given as the source filed them. No cut-off for these calls is given here.
Labels: active, inactive

INSERT INTO assay_data (compound_structure, assigned_label) VALUES
  ('CC(C)(O)CCC[C@@](C)(O)[C@H]1CC[C@]2(C)[C@@H]1[C@H](O)C[C@@H]1[C@@]3(C)CC[C@H](O)C(C)(C)[C@@H]3[C@@H](O)C[C@]12C', 'inactive'),
  ('CC(C)=CCC[C@](C)(O)[C@H]1CC[C@]2(C)[C@@H]1[C@H](O)C[C@@H]1[C@@]3(C)CC[C@H](O[C@@H]4O[C@H](CO)[C@@H](O)[C@H](O)[C@H]4O)C(C)(C)[C@@H]3[C@@H](O)C[C@]12C', 'active'),
  ('CC(C)=CCC[C@](C)(O[C@@H]1O[C@H](CO)[C@@H](O)[C@H](O)[C@H]1O)[C@H]1CC[C@]2(C)[C@@H]1[C@H](O)C[C@@H]1[C@@]3(C)CC[C@H](O)C(C)(C)[C@@H]3[C@@H](O)C[C@]12C', 'active'),
  ('CC(C)(O)CCC[C@](C)(O)[C@H]1CC[C@]2(C)[C@@H]1[C@H](O)C[C@@H]1[C@@]3(C)CC[C@H](O)C(C)(C)[C@@H]3[C@@H](O)C[C@]12C', 'inactive');

----------
Tested On: NAD-dependent protein deacetylase sirtuin-1 (Homo sapiens) (UniProt Q96EB6)
Assay Name: Activation of SIRT1 (unknown origin) assessed as Fluor de Lys deacetylation at 10 to 20 uM incubated for 5 mins followed by substrate addition measured after 45 mins in presence of NAD/NADH by fluorescence assay
The source made the active and inactive calls. The calls are words filed in the database; no cut-off is given here.
Quantity Kind: Activity

INSERT INTO assay_data (compound_structure, result) VALUES
  ('CC(C)=CCC[C@](C)(O)[C@H]1CC[C@]2(C)[C@@H]1[C@H](O)C[C@@H]1[C@@]3(C)CC[C@H](O)C(C)(C)[C@@H]3CC[C@]12C', 'Active'),
  ('CC(C)=CCC[C@](C)(O)[C@H]1CC[C@]2(C)[C@@H]1[C@H](O)C[C@@H]1[C@@]3(C)CC[C@H](O[C@@H]4O[C@H](CO)[C@@H](O)[C@H](O)[C@H]4O[C@@H]4O[C@H](CO)[C@@H](O)[C@H](O)[C@H]4O)C(C)(C)[C@@H]3CC[C@]12C', 'Active'),
  ('CC(C)=CC/C=C(\C)[C@H]1CC[C@]2(C)[C@@H]1[C@H](O)C[C@@H]1[C@@]3(C)CC[C@H](O[C@@H]4O[C@H](CO)[C@@H](O)[C@H](O)[C@H]4O[C@@H]4O[C@H](CO)[C@@H](O)[C@H](O)[C@H]4O)C(C)(C)[C@@H]3CC[C@]12C', 'Active');
